ASSAY_NOTES: qHTS of pediatric cancer cell lines to identify multiple opportunities for drug repurposing: Confirmatory screen for NB1643 cells (AID 1347109); also: nearly all actives have a fitted effect of over 45% in size
MEASUREMENT_SETUP: NB1643 neuroblastoma cell viability; series mostly up to 45.9 µM
Results filed as inconclusive are left out. Calls of active or inactive are those of the source. Calls follow the shape of the dose curve; as a rule, active = well fitted cell-killing curve with a large enough effect; inconclusive = small, poorly fitted or top-dose-only effect, or effect the other way; inactive = no such curve, though single readings can be large or run the other way.
Classes used: YES = active, NO = inactive

[[record]]
compound = "COc1cc2nc(N3CCCN(C)CC3)nc(NC3CCN(Cc4ccccc4)CC3)c2cc1OC"
label = "YES"

[[record]]
compound = "COc1cc([C@@H]2c3cc4c(cc3[C@H](O)[C@H]3COC(=O)[C@H]23)OCO4)cc(OC)c1OC"
label = "YES"

[[record]]
compound = "C[C@@H]1C[C@H]2[C@@H]3CCC4=CC(=O)C=C[C@]4(C)[C@@]3(Cl)[C@@H](O)C[C@]2(C)[C@@]1(OC(=O)c1ccco1)C(=O)CCl"
label = "YES"

[[record]]
compound = "COc1ccc(-c2ccc3cc(C(=O)O)ccc3c2)cc1C12CC3CC(CC(C3)C1)C2"
label = "YES"

[[record]]
compound = "CCC(=O)O[C@]1(C(=O)CCl)[C@@H](C)C[C@H]2[C@@H]3CCC4=CC(=O)C=C[C@]4(C)[C@@]3(F)[C@@H](O)C[C@@]21C"
label = "NO"

[[record]]
compound = "CCCCOc1ccc(CC(=O)NO)cc1"
label = "NO"

[[record]]
compound = "CCOC(=O)c1ccc(C#Cc2ccc3c(c2)C(C)(C)CCS3)nc1"
label = "NO"

[[record]]
compound = "CNS(=O)(=O)CCc1ccc2[nH]cc(C3CCN(C)CC3)c2c1"
label = "NO"

[[record]]
compound = "CNCC[C@H](Oc1cccc2ccccc12)c1cccs1"
label = "NO"

[[record]]
compound = "CC(C(=O)O)c1ccc2c(c1)CC(=O)c1ccccc1S2 (stereo not given)"
label = "NO"


---

System: CP217
ASSAY_NOTES: qHTS profiling for inhibitors of Plasmodium falciparum proliferation (AID 504749); also: nearly all actives have a fitted effect of over 60% in size
MEASUREMENT_SETUP: P. falciparum in erythrocytes, SYBR Green DNA, 72 h; series mostly up to 28.7 µM
Results filed as inconclusive are left out. Activity calls are given as the source filed them. Calls come from the whole dose curve; as a rule, active = well fitted inhibition curve with a large enough effect; inconclusive = small, poorly fitted or top-dose-only effect; inactive = flat fitted curve, though single readings scatter.
Classes used: active, inactive

[[record]]
compound = "CC(N)C12CC3CC(CC(C3)C1)C2 (stereo unspecified)"
label = "inactive"

[[record]]
compound = "CN(C)c1ccc(C(=C2C=CC(=[N+](C)C)C=C2)c2ccc(N(C)C)cc2)cc1"
label = "active"

[[record]]
compound = "Cc1ccnc2c1NC(=O)c1cccnc1N2C1CC1"
label = "inactive"

[[record]]
compound = "O=NN(CCCl)C(=O)NC1CCCCC1"
label = "inactive"

[[record]]
compound = "N[C@@H](C(=O)N[C@@H]1C(=O)N2C(C(=O)O)=C(Cl)CS[C@H]12)c1ccccc1"
label = "inactive"

[[record]]
compound = "Nc1[nH]c(=O)ncc1F"
label = "inactive"


---

ASSAY_NOTES: Quantitative High-Throughput drug screen in 47 multiple myeloma cell lines against the NCATS MIPE library collection: PE2_PLB cell viability assay (AID 1919869); also: nearly all actives have a fitted effect of over 35% in size
MEASUREMENT_SETUP: PE2_PLB myeloma cells viability, ATP luminescence, 48 h; series mostly up to 45.8 µM
Inconclusive results are not listed. Calls of active or inactive are those of the source. Calls come from the whole dose curve; as a rule, active = well fitted cell-killing curve with a large enough effect; inconclusive = small, poorly fitted or top-dose-only effect, or effect the other way; inactive = no such curve, though single readings can be large or run the other way.
Classes used: 1 (yes) = active, 0 (no) = inactive

[[record]]
molecule = "COc1cc(NCc2ccc3nc(N)nc(N)c3c2C)cc(OC)c1OC"
label = "1 (yes)"

[[record]]
molecule = "O=C(NCC1CN(c2ccc(N3CCOCC3=O)cc2)C(=O)O1)c1ccc(Cl)s1 (stereo not drawn)"
label = "0 (no)"

[[record]]
molecule = "CCOC(=O)c1ccc(OC(=O)CCCCCN=C(N)N)cc1"
label = "0 (no)"

[[record]]
molecule = "O=C(O)C1CCCN(CCC=C(c2ccccc2)c2ccccc2)C1 (stereo not drawn)"
label = "0 (no)"

[[record]]
molecule = "NCCCC(O)(P(=O)(O)O)P(=O)(O)O"
label = "0 (no)"

[[record]]
molecule = "CC(C(=O)O)c1ccc2c(c1)CC(=O)c1ccccc1S2 (stereo not drawn)"
label = "0 (no)"

[[record]]
molecule = "CCOC(=O)c1ccc(C#Cc2ccc3c(c2)C(C)(C)CCS3)nc1"
label = "0 (no)"

[[record]]
molecule = "O=c1cc(O)c(Cl)c[nH]1"
label = "0 (no)"

[[record]]
molecule = "CC1=CC(=O)c2ccccc2C1=O"
label = "1 (yes)"

[[record]]
molecule = "CC(C)C[C@H](NC(=O)[C@H](CCc1ccccc1)NC(=O)CN1CCOCC1)C(=O)N[C@@H](Cc1ccccc1)C(=O)N[C@@H](CC(C)C)C(=O)[C@@]1(C)CO1"
label = "1 (yes)"

[[record]]
molecule = "CCc1c2c(nc3ccc(OC(=O)N4CCC(N5CCCCC5)CC4)cc13)-c1cc3c(c(=O)n1C2)COC(=O)[C@]3(O)CC"
label = "1 (yes)"

[[record]]
molecule = "COC(=O)Nc1nc2ccc(C(=O)c3ccccc3)cc2[nH]1"
label = "1 (yes)"

[[record]]
molecule = "CNS(=O)(=O)Cc1ccc2[nH]cc(CCN(C)C)c2c1"
label = "1 (yes)"

[[record]]
molecule = "CC(=O)CC(c1ccccc1)c1c(O)c2ccccc2oc1=O (stereo not drawn)"
label = "0 (no)"

[[record]]
molecule = "COc1ccc2cc3[n+](cc2c1OC)CCc1cc2c(cc1-3)OCO2"
label = "1 (yes)"

[[record]]
molecule = "CC(C)(C)C(=O)OCOP(=O)(COCCn1cnc2c(N)ncnc21)OCOC(=O)C(C)(C)C"
label = "1 (yes)"

[[record]]
molecule = "O=P(O)(O)C(O)(Cc1cccnc1)P(=O)(O)O"
label = "0 (no)"

[[record]]
molecule = "COc1cccc(N(C)C(=S)Oc2ccc3c(c2)CCCC3)n1"
label = "0 (no)"

[[record]]
molecule = "CC(C)(Sc1cc(C(C)(C)C)c(O)c(C(C)(C)C)c1)Sc1cc(C(C)(C)C)c(O)c(C(C)(C)C)c1"
label = "1 (yes)"

[[record]]
molecule = "CC(C)(C)NC(=O)[C@H]1CC[C@H]2[C@@H]3CC[C@H]4NC(=O)C=C[C@]4(C)[C@H]3CC[C@]12C"
label = "1 (yes)"

[[record]]
molecule = "CCCCc1oc2ccc(NS(C)(=O)=O)cc2c1C(=O)c1ccc(OCCCN(CCCC)CCCC)cc1"
label = "1 (yes)"

[[record]]
molecule = "Cc1onc(-c2ccccc2Cl)c1C(=O)N[C@@H]1C(=O)N2[C@@H]1SC(C)(C)[C@@H]2C(=O)O"
label = "0 (no)"

[[record]]
molecule = "C[C@@H]1C[C@H]2[C@@H]3CCC4=CC(=O)C=C[C@]4(C)[C@@]3(Cl)[C@@H](O)C[C@]2(C)[C@@]1(OC(=O)c1ccco1)C(=O)CCl"
label = "1 (yes)"

[[record]]
molecule = "CC(C)OC(=O)C(C(=O)OC(C)C)=C1SC=CS1"
label = "0 (no)"

[[record]]
molecule = "O=C(O)c1cc(=O)[nH]c(=O)[nH]1"
label = "0 (no)"

[[record]]
molecule = "C[C@@H]1CN(c2c(F)c(N)c3c(=O)c(C(=O)O)cn(C4CC4)c3c2F)C[C@H](C)N1"
label = "0 (no)"

[[record]]
molecule = "Cc1cccc(N(C)C(=S)Oc2ccc3ccccc3c2)c1"
label = "0 (no)"

[[record]]
molecule = "C1CCC(C(CC2CCCCN2)C2CCCCC2)CC1 (stereo not drawn)"
label = "1 (yes)"

[[record]]
molecule = "CNC(=O)c1cc(Oc2ccc(NC(=O)Nc3ccc(Cl)c(C(F)(F)F)c3)cc2)ccn1"
label = "1 (yes)"

[[record]]
molecule = "OCc1ccc(-c2nn(Cc3ccccc3)c3ccccc23)o1"
label = "0 (no)"

[[record]]
molecule = "Cc1ccnc2c1NC(=O)c1cccnc1N2C1CC1"
label = "1 (yes)"

[[record]]
molecule = "CO[C@@H]1[C@@H](OC(N)=O)[C@@H](O)[C@H](Oc2ccc3c(O)c(NC(=O)c4ccc(O)c(CC=C(C)C)c4)c(=O)oc3c2C)OC1(C)C"
label = "1 (yes)"

[[record]]
molecule = "Cc1noc(NS(=O)(=O)c2ccc(N)cc2)c1C"
label = "0 (no)"

[[record]]
molecule = "CCN(CC)CCn1c(=O)c(Cc2ccc(OC)cc2)nc2ccccc21"
label = "0 (no)"

[[record]]
molecule = "Nc1ccc(S(=O)(=O)Nc2ccccn2)cc1"
label = "0 (no)"

[[record]]
molecule = "CO[C@@]12[C@H](COC(N)=O)C3=C(C(=O)C(C)=C(N)C3=O)N1C[C@@H]1N[C@@H]12"
label = "1 (yes)"

[[record]]
molecule = "CN(CCOc1ccc(CC2SC(=O)NC2=O)cc1)c1ccccn1 (stereo not drawn)"
label = "0 (no)"

[[record]]
molecule = "CN1CCN(c2c(F)cc3c(=O)c(C(=O)O)cn(CCF)c3c2F)CC1"
label = "0 (no)"

[[record]]
molecule = "COc1ccccc1OCC(O)COC(N)=O (stereo not drawn)"
label = "0 (no)"

[[record]]
molecule = "CCCOc1ccc(C(=O)OCCN(CC)CC)cc1N"
label = "0 (no)"

[[record]]
molecule = "Cn1nnc2c(C(N)=O)ncn2c1=O"
label = "0 (no)"

[[record]]
molecule = "CCN(CC)CC#CCOC(=O)C(O)(c1ccccc1)C1CCCCC1 (stereo not drawn)"
label = "0 (no)"

[[record]]
molecule = "CCn1cc(C(=O)O)c(=O)c2cc(F)c(N3CCN(C)CC3)cc21"
label = "0 (no)"

